# measurement_notes: Drug level in alveolar cells of lung transplant recipient invasive aspergillosis patient at 150 mg, iv single dose measured after 5 hrs post dose by HPLC
# condition_label: human, read-out: Drug uptake
Numbered stars: 1 amine (or outer) side, 2 acyl side, 3 side chain; on linkers, the order of the positions; unused ones are H or OH. Bridge positions count the residues as written; N and C are the ends. Square brackets hold non-standard residues; d marks the D form. Peptide text beside a SMILES is read from it. * marks the point of attachment. hTyr(3S-OH,4S-OH,3'-OSO3H) = N[C@H](C(=O)O)[C@H](O)[C@@H](O)c1ccc(O)c(OS(=O)(=O)O)c1; Orn(4R-OH,5R-OH) = O=C([C@H](C[C@@H](O)[C@@H](O)N[*:3])N[*:1])[*:2]; Pro(3S-OH,4S-Me) = C[C@H]1CN[C@H](C(=O)O)[C@H]1O; X1 = CCCCCOc1ccc(-c2cc(-c3ccc(C(=O)*)cc3)no2)cc1; Gln(3R-OH) = NC(=O)C[C@@H](O)[C@H](N)C(=O)O; Hyp = O=C(O)[C@@H]1C[C@@H](O)CN1
property_label: concentration at 5 h (ng/mL)
Provide only the numeric value, understood in ng/mL.

According to the records, this compound CCCCCOc1ccc(-c2cc(-c3ccc(C(=O)N[C@H]4C[C@@H](O)[C@@H](O)NC(=O)[C@@H]5[C@@H](O)[C@@H](C)CN5C(=O)[C@H]([C@H](O)CC(N)=O)NC(=O)[C@H]([C@H](O)[C@@H](O)c5ccc(O)c(OS(=O)(=O)O)c5)NC(=O)[C@@H]5C[C@@H](O)CN5C(=O)[C@H]([C@@H](C)O)NC4=O)cc3)no2)cc1 [MICAFUNGIN] (X1-[Orn(4R-OH,5R-OH)]T[Hyp][hTyr(3S-OH,4S-OH,3'-OSO3H)][Gln(3R-OH)][Pro(3S-OH,4S-Me)]; lactam 1-C) displays concentration at 5 h of 2840
